Hey, just so you know, these numbers are from patent US20200317779A1.

The binders listed here are annotated with their Absorbance (450 nm).
assayed system: recombinant human CD3ε/δ heterodimer (human) (UniProt P07766)
Sequence (P07766 23-126, stated change not applied, chain 1 of 2): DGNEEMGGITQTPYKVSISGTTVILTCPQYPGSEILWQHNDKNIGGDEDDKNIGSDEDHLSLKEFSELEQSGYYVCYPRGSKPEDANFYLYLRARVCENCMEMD
Sequence (P04234 22-105, stated change not applied, chain 2 of 2, further chain): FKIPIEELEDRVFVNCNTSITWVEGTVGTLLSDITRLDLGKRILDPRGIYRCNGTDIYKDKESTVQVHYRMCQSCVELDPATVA
assay explanation: ELISA, coated CD3ε/δ
No unit in the answer, please; the number alone is enough.

# binder, Absorbance (450 nm)
measured = [
    ("E01 (antibody, human IgG1, lambda, L234A L235A, V domains shown) VH: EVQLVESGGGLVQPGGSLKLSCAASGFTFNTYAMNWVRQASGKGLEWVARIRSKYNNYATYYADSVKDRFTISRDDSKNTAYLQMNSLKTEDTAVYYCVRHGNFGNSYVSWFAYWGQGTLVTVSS VL: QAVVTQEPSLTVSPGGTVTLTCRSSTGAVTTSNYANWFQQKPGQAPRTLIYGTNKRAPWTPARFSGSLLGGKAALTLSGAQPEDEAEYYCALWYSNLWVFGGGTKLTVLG", 0.1),
]

D09 (antibody, human IgG1, lambda, L234A L235A, V domains shown) VH: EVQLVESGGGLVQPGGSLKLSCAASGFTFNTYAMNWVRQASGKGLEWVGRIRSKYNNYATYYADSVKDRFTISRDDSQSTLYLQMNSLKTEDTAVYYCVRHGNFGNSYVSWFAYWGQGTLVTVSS VL: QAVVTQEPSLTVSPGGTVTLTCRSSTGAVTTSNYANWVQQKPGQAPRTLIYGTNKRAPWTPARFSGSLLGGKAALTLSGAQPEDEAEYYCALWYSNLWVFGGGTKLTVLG has a reported Absorbance (450 nm) of 0.122
